Please go through the items and note down their melting point.

Qu. Could you share which melting point value was measured for `O=C1c2c(Cl)cccc2-n2cnc(-c3noc(CCl)n3)c2[C@@H]2CCCN12` ?
Ans. 184 to 186 °C

Qu. Can you look up the measured melting point of `OCCCOc1ccc(-n2nc(-c3ccccc3)c3cccnc32)cc1` for me?
Ans. 135 to 138 °C

Qu. Return reported melting point; argument: CCc1cc(O)c(C(=O)CCc2ccc3occc3c2)c(OC2OC(CO)C(O)C(O)C2O)c1 (configuration not stated)
Ans. 146 to 148 °C

Qu. Requested field: melting point. Item: `COc1cc(C(=O)Cl)ccc1OCc1ccccc1`
Ans. 63 to 65 °C

Qu. Request the reported melting point associated with `CN(C)C(=O)N(CCl)c1ccc(Cl)cc1`
Ans. 37 to 43 °C

Qu. Quick one: melting point of Cc1cc(OCc2ccccc2)cc(C)c1NC(=O)CN1CCN2C(C1)C(=O)NC2(C)C (configuration not stated) ?
Ans. 224 °C

Qu. Consider the compound shown here: `Oc1cccnc1Oc1cccc(Cl)c1` What is its recorded melting point?
Ans. 109 to 110 °C

Qu. // returns reported melting point for input CCC(C)Nc1nc(Cc2cc(OC)c(OC)c(OC)c2)nc2sc(C#N)c(C)c12 (configuration not stated)
Ans. 134 to 137 °C

Qu. Looking for the measured melting point of `CCN(c1nc(C)cc(C)n1)c1ccc(N(C)C(C)=O)cc1SC` , can you help?
Ans. 158 to 160 °C

Qu. Bench note: what melting point did `Nc1cc(-c2nnc(SCc3cccc(F)c3)o2)ccn1` show?
Ans. 175 to 176 °C

Qu. Using the record for Cc1ccc(C2CCc3ccccc3O2)cc1 (configuration not stated) , report its melting point.
Ans. 94 °C

Qu. May I ask what melting point has been recorded for `O=S(=O)(c1cccc(-c2cc(-c3nc(-c4ccc(C(F)(F)F)cc4)cc(C(F)(F)F)n3)ccn2)c1)N(CCO)CCO` ?
Ans. 186 °C

Qu. Field request: melting point | item: `c1cc(-c2ccc(-c3cn([C@H]4CN5CCC4CC5)nn3)s2)ccc1CN1CCCCC1`
Ans. 230 °C

Qu. Given the entry `Oc1cccc(CCc2nc(-c3ccsc3)c(-c3ccsc3)o2)c1` , report its measured melting point.
Ans. 144 to 145 °C

Qu. Which value of melting point has been reported for `COc1ccc(CN(C)CCCOc2ccc(S(=O)(=O)c3c(C(C)C)cn4ccccc34)cc2)cc1OC` in the records?
Ans. 96 to 100 °C

Qu. Consider the compound `O=C1Cc2ccccc2C=Cc2c(Cl)cccc21` and give its measured melting point.
Ans. 151 to 153 °C

Qu. Name the reported melting point value associated with the compound CC1=CC(=O)C(C(=O)C=Cc2cccs2)C(=O)O1 (configuration not stated)
Ans. 162 to 164 °C

Qu. Entry under review: `O=C(O)CCc1nc(-c2cc3ccccc3o2)no1` . Reported melting point?
Ans. 154 to 155 °C

Qu. I'd like to know its melting point. The compound in question is O=C(Cc1ccc(Cl)c(Cl)c1)N1CCNC2CCCCC21 (configuration not stated)
Ans. 119 to 120 °C

Qu. Request the reported melting point associated with `COC(=O)C=CC(=O)c1cc(F)ccc1N`
Ans. 80 to 84 °C

Qu. Consider the compound shown here: `Cc1ccc(-c2nc3c(O)cccc3s2)cc1` What is its recorded melting point?
Ans. 164 to 166 °C

Qu. Please look up its melting point: `CC(=O)OCCOc1ccc(OCCOC(C)=O)c(N)c1`
Ans. 67.5 to 69.5 °C
